Assay: recombinant barcode read abundance after kanamycin selection (control-corrected) (log10(CPM+1)); higher = more efficient recombination; sequences stand for … in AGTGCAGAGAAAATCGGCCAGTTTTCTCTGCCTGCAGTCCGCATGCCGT…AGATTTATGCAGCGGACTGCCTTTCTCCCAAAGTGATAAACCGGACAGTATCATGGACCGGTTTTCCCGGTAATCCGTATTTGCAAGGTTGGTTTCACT; site = the 11-nt target;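 also: IS621 recombinase and bridge RNA in Escherichia coli cells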
measurement type: recombinant barcode read abundance (log10)
One number for each entry.

entry sequence | measurement
TAGTACTCTTGGGTTCTAACCTGTTGCTG (site TAGTACTCTAA) | 0.244

I'm hoping you can list recombinant barcode read abundance (log10) for every sequence here, please.
1. TCGCACGCTTGGGTTCTAACCTGTTGCCT (site TCGCACGCTAG)
2. ACATGTACTTGGGTTCTAACCTGTTGCTG (site ACATGTACTCA)

[0.205, 1.1]
